All figures here come from patent US11786519B2.

Lab note: Ki readings collected with Bcl-xL (Homo sapiens) for the following compounds.
Sequence (Q07817 whole entry): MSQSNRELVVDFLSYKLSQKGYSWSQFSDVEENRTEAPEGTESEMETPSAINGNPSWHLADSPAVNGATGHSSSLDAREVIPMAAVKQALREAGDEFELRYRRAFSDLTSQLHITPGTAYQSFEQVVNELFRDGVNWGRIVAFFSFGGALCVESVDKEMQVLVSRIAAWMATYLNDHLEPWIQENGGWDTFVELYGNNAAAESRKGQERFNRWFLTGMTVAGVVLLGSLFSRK

Worked set:
>  <compound>
Cc1c(-c2ccc(N3CCc4cccc(C(=O)Nc5nc6cccnc6s5)c4C3)nc2C(=O)O)cnn1CC12CC3CC(CC(C3)C1)C2

>  <recorded.result>
< 100 pM

$$$$
>  <compound>
O=C(Nc1nc2ccccc2s1)c1cccc2c1CN(c1ccc(-c3ccnc(OCC45CC6CC(CC(C6)C4)C5)c3)c(C(=O)O)n1)CC2

>  <recorded.result>
800 pM

$$$$

Item: O=C(Nc1nc2ccccc2s1)c1cccc2c1CN(c1ccc(-c3cccc(OCC45CC6CC(CC(C6)C4)C5)c3)c(C(=O)O)n1)CC2 | System: Bcl-xL (Homo sapiens) | Ki: 1000 pM

Item: COCCC1(Cn2cc(-c3ccc(N4CCc5cccc(C(=O)Nc6nc7ccccc7s6)c5C4)nc3C(=O)O)cn2)C2CC3CC(C2)CC1C3 (stereo not drawn) | System: Bcl-xL (Homo sapiens) | Ki: < 100 pM

Item: Cc1c(-c2ccc(N3CCc4cccc(C(=O)Nc5nc6ccccc6s5)c4C3)nc2C(=O)O)ccnc1SC12CC3CC(CC(C3)C1)C2 | System: Bcl-xL (Homo sapiens) | Ki: < 100 pM

Item: CC(C)OC12CC3CC(CC(Cn4cc(-c5ccc(N6CCc7cccc(C(=O)Nc8nc9ccccc9s8)c7C6)nc5C(=O)O)cn4)(C3)C1)C2 | System: Bcl-xL (Homo sapiens) | Ki: < 100 pM
